- System: ATP;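 also: ATP exposure 15 min at 22 °C before imaging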
- assay_protocol: switch fluorescence ratio, 500 uM ATP over buffer (Cy3 cluster intensity, sum of 5 cycles each) (fold (ratio)); higher = stronger signal-on switching upon ATP binding; sequences stand for … in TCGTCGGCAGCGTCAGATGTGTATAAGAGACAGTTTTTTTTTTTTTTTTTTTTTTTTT…TC
- protocol_conditions: aptamer strand: ATP DNA aptamer (quencher-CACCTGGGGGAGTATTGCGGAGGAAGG + anchor), 100 nM annealed; ATP concentration: 500 uM
property_measured: switch fluorescence ratio
Lab note: jot the number down without any unit.

Reference set, count: 5
AGAAAAACAT: 1.03
TTTTTGCTAT: 1.06
TATTTTGGTC: 1.02
CTATTTTATT: 1.01
GGGCGCCATC: 1.01

Input line: Recall and state the measured switch fluorescence ratio for "AAGGGCTCAT" .
Output line: 0.974

Input line: Recall and state the measured switch fluorescence ratio for "TACAGAGATT" .
Output line: 0.978

Input line: Recall and state the measured switch fluorescence ratio for "CTTAGATTTT" .
Output line: 0.988

Input line: Recall and state the measured switch fluorescence ratio for "ATAAAGTTGA" .
Output line: 1

Input line: Recall and state the measured switch fluorescence ratio for "ACGCAGGTAT" .
Output line: 1.04

Input line: Recall and state the measured switch fluorescence ratio for "TTACTGTTG" .
Output line: 1.05

Input line: Recall and state the measured switch fluorescence ratio for "GAGACTTGTT" .
Output line: 0.997

Input line: Recall and state the measured switch fluorescence ratio for "ATGGGACAGG" .
Output line: 0.999

Input line: Recall and state the measured switch fluorescence ratio for "TTAGGTTAAA" .
Output line: 1.06

Input line: Recall and state the measured switch fluorescence ratio for "CACAGGGCGG" .
Output line: 1.04

Input line: Recall and state the measured switch fluorescence ratio for "TTTGGTTTCA" .
Output line: 0.994

Input line: Recall and state the measured switch fluorescence ratio for "TTTTGGTTAC" .
Output line: 1.04

Input line: Recall and state the measured switch fluorescence ratio for "GCGGGGGCAT" .
Output line: 0.964

Input line: Recall and state the measured switch fluorescence ratio for "TAGCTGACTG" .
Output line: 1.02

Input line: Recall and state the measured switch fluorescence ratio for "GTTTAGAGTG" .
Output line: 0.944

Input line: Recall and state the measured switch fluorescence ratio for "TAGAAGGCTT" .
Output line: 0.999
